Listed below: IC50 values for each entry.
target_under_test: GAL4-mPPARγ (Mus musculus, UniProt P37238)
Construct: expressed in transfected cells; host or cells: COS7
Sequence (P37238 with tags, fused parts or gaps limits assumed): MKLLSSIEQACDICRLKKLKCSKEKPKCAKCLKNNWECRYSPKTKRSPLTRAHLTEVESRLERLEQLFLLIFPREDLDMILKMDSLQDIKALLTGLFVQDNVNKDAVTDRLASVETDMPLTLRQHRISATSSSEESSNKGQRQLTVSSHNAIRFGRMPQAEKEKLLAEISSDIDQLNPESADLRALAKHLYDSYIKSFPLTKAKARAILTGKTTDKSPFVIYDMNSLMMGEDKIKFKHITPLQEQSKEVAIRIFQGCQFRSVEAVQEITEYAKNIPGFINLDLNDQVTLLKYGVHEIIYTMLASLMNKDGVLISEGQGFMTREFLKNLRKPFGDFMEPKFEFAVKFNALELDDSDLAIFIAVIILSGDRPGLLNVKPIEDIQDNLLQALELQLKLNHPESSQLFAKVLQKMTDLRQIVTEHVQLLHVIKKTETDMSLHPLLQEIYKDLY
assay_info: GAL4-mPPARγ antagonism in competition with 50 nM rosiglitazone, transiently transfected COS7 cells
Type: cell-based
condition_info: COS7, in competition with 50 nM rosiglitazone
Protocol: pCMX-Gal4, pCMX-Gal4-mPPARγ, and pCMX-Gal4-hRXRα were previously described ([Grün et al. 2006]). Transient transfections were performed in COS7 cells as described ([Chamorro-García et al. 2012]). Briefly, COS7 cells were seeded at 15,000 cells per well in 96-well tissue culture plates in 10% calf bovine serum. […] Figure 1 ToxCast™ Chemical Activity on PPARγ. […] (C) EC50, EC10, IC50, and IC10 values calculated from A and B are reported and compared to commercial assays (see Figure S1). […]
Write down the numeric answer in µM and omit the unit.

CCOCN(C(=O)CCl)c1c(C)cccc1CC: 46.7

Now look at this entry.
## Task Query the reported IC50 for GAL4-mPPARγ (Mus musculus, UniProt P37238); item: `CCc1cccc(CC)c1N(COC)C(=O)CCl`
## Result 4.48

###

target_under_test: GAL4-mPPARγ (Mus musculus, UniProt P37238)
Construct: expressed in transfected cells; host or cells: COS7
assay_info: GAL4-mPPARγ activation, transient transfection luciferase reporter in COS7 cells
Type: cell-based
condition_info: Cos-7 transient transfection, PPARγ activation or antagonism assays (Table 1, Table S6)
Experimental: pCMX-Gal4, pCMX-Gal4-mPPARγ, and pCMX-Gal4-hRXRα were previously described ([Grün et al. 2006]). Transient transfections were performed in COS7 cells as described ([Chamorro-García et al. 2012]). Briefly, COS7 cells were seeded at 15,000 cells per well in 96-well tissue culture plates in 10% calf bovine serum. […] Figure 1 ToxCast™ Chemical Activity on PPARγ. […] (C) EC50, EC10, IC50, and IC10 values calculated from A and B are reported and compared to commercial assays (see Figure S1). […]
measure_name: Activation COS7 (result in words), ToxCast PPARγ list

As a guide, the following entries are already answered.
C=CCC1=C(C)[C@@H](OC(=O)[C@@H]2[C@@H](C=C(C)C)C2(C)C)CC1=O: Inactive
Cc1nn(C)c(Oc2ccccc2)c1C=NOCc1ccc(C(=O)OC(C)(C)C)cc1 [(Z,E)-Fenpyroximate]: Inactive
CCC(C)(NC(=O)c1cc(Cl)c(C)c(Cl)c1)C(=O)CCl (stereo not shown) [Zoxamide]: PPARγ activator
CCCOC/C(=N\c1ccc(Cl)cc1C(F)(F)F)n1ccnc1: PPARγ activator
[OH-].c1cc[c]([Sn+]([c]2ccccc2)[c]2ccccc2)cc1: PPARγ activator

## Task Suppose we examine the compound `CCC(C)(C)C(=O)OC1=C(c2ccc(Cl)cc2Cl)C(=O)OC12CCCCC2` ; what Activation COS7 (result in words), ToxCast PPARγ list value has been reported?
## Result PPARγ activator

## Task Fill in: Activation COS7 (result in words), ToxCast PPARγ list of O=C(Nc1ccc([N+](=O)[O-])cc1Cl)c1cc(Cl)ccc1O [Niclosamide] is ___
## Result Inactive

## Task Request the reported Activation COS7 (result in words), ToxCast PPARγ list associated with `CCCN(CCOc1c(Cl)cc(Cl)cc1Cl)C(=O)n1ccnc1`
## Result Inactive

## Task // returns reported Activation COS7 (result in words), ToxCast PPARγ list for input `CCc1nn(C)c(C(=O)NCc2ccc(C(C)(C)C)cc2)c1Cl`
## Result Inactive
